system name: CXCR3 (Homo sapiens, UniProt P49682)
Construct: host or cells: CHO-K1 (cAMP Hunter CHOK1 CXCR3 Gi cell line)
Sequence (P49682 whole entry): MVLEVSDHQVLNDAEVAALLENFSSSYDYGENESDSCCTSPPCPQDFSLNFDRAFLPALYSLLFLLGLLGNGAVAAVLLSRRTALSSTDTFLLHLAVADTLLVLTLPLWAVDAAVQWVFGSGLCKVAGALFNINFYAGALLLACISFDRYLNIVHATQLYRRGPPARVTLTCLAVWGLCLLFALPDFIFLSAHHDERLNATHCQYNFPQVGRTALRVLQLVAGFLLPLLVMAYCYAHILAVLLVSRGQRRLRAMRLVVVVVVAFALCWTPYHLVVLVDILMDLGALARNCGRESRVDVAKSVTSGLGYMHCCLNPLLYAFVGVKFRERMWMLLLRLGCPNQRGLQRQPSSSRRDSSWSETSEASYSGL
test summary: CXCR3 cAMP agonist assay (cAMP Hunter CHOK1 CXCR3 Gi cell line, forskolin-stimulated, HitHunter cAMP detection)
Type: cell-based
setup conditions: cAMP Hunter CHOK1 CXCR3 Gi cells, 20 μM forskolin, 30 minutes; read-out: Activity (CXCR3 cAMP agonist assay compound EC50)
Method: The cAMP Hunter™ CHOK1 CXCR3 Gi cell line was purchased from DiscoveRx. Cells were seeded into a 96-well white assay plate at 50,000 cells/well/94 μl assay buffer (Hank's Buffered Saline Solution, 10 mM HEPES, 0.1% fatty acid-free BSA, pH 7.4) and immediately assayed in suspension. […] Direct detection of cAMP was carried out using the DiscoveRx HitHunter cAMP kit according to manufacturer's instructions, and luminescence was read using a SpectraMax M5 plate reader.
pEC50: −log10 of the molar value.
assay readout: pEC50

What pEC50 value was documented for this compound, Cc1ccc(NC(=O)[C@H](CCN)NC(=O)[C@@H]2Cc3ccccc3CN2C(=O)CCC(=O)c2ccccc2)c(F)c1 [Compound 2-31] ?
6.60 to 7.30

What pEC50 value was documented for this compound, Cc1c(F)cc(NC(=O)[C@H](CCN)NC(=O)[C@@H]2Cc3ccccc3CN2C(=O)CCC(=O)c2ccccc2)cc1Cl [Compound 4-19] ?
> 7.30

What pEC50 value was documented for this compound, CC(C)(C)CNC(=O)CCC(=O)N1Cc2ccccc2C[C@H]1C(=O)NC1(C(=O)Nc2ccc(Cl)c(Cl)c2F)CCNCC1 [Compound 12-129] ?
6.30 to 6.60

What pEC50 value was documented for this compound, Cc1cc(NC(=O)[C@H](CCN)NC(=O)[C@@H]2Cc3ccccc3CN2C(=O)CCC(=O)N2CCN(C)CC2(C)C)ccc1Cl [Compound 12-103] ?
> 7.30

What pEC50 value was documented for this compound, Cc1cc(NC(=O)[C@H](CCN)NC(=O)[C@@H]2Cc3ccccc3CN2C(=O)CCC(=O)N(C)c2ccccc2)ccc1Cl [Compound 12-124] ?
6.30 to 6.60

What pEC50 value was documented for this compound, Cc1cccc(F)c1NC(=O)[C@H](CCN)NC(=O)[C@@H]1Cc2ccccc2CN1C(=O)CCC(=O)c1ccccc1 [Compound 14-5] ?
6.30 to 6.60

What pEC50 value was documented for this compound, NCC[C@H](NC(=O)[C@@H]1Cc2ccccc2CN1C(=O)CCC(=O)c1ccccc1)C(=O)Nc1ccc(Cl)cc1OC(F)(F)F [Compound 14-23] ?
6.60 to 7.30

What pEC50 value was documented for this compound, CCN1CCN(C(=O)CCC(=O)N2Cc3ccccc3C[C@H]2C(=O)N[C@@H](CCN)C(=O)Nc2ccc(Cl)c(C)c2)C(C)(C)C1 [Compound 12-126] ?
6.60 to 7.30

What pEC50 value was documented for this compound, Cc1cc(NC(=O)[C@H](CCN)NC(=O)[C@@H]2Cc3ccccc3CN2C(=O)CCC(=O)NC(C)(C)C)ccc1Cl [Compound 12-83] ?
6.60 to 7.30

What pEC50 value was documented for this compound, Cc1cc(NC(=O)[C@H](CCN)NC(=O)[C@@H]2Cc3ccccc3CN2C(=O)CCC(=O)N2CCN(C)[C@@H](C)C2)ccc1Cl [Compound 12-36] ?
> 7.30

What pEC50 value was documented for this compound, NCC[C@H](NC(=O)[C@@H]1Cc2ccccc2CN1C(=O)CCC(=O)N1CCN2CCC[C@@H]2C1)C(=O)Nc1ccc(Cl)c(Cl)c1F [Compound 15-49] ?
> 7.30

What pEC50 value was documented for this compound, CC(C)c1ccc(NC(=O)[C@H](CCCCN)NC(=O)[C@@H]2Cc3ccccc3CN2C(=O)CCC(=O)c2ccccc2)cc1 [Compound 1-7] ?
< 6.30

What pEC50 value was documented for this compound, Cc1cc(NC(=O)[C@H](CCN)NC(=O)[C@@H]2Cc3ccccc3CN2C(=O)CCC(=O)N2CCC[C@@H](C)C2)ccc1Cl [Compound 12-57] ?
> 7.30

What pEC50 value was documented for this compound, Cc1cc(NC(=O)[C@H](CCN)NC(=O)[C@@H]2Cc3ccccc3CN2C(=O)CCC(=O)N2CCC(C#N)C2)ccc1Cl (stereo partly shown) [Compound 12-70] ?
6.60 to 7.30

What pEC50 value was documented for this compound, NCC[C@H](NC(=O)[C@@H]1Cc2ccccc2CN1C(=O)CCC(=O)c1ccccc1)C(=O)Nc1ccc2ncsc2c1 [Compound 2-65] ?
6.60 to 7.30

What pEC50 value was documented for this compound, Cc1nc2ccc(NC(=O)[C@H](CCN)NC(=O)[C@@H]3Cc4ccccc4CN3C(=O)CCC(=O)c3ccccc3)cc2s1 [Compound 2-64] ?
6.30 to 6.60

What pEC50 value was documented for this compound, NCC[C@H](NC(=O)[C@@H]1Cc2ccccc2CN1C(=O)CCC(=O)N1CCCC[C@H]1CO)C(=O)Nc1ccc(Cl)c(Cl)c1F [Compound 15-19] ?
6.60 to 7.30

What pEC50 value was documented for this compound, Cc1cc(NC(=O)[C@H](CCN)NC(=O)[C@@H]2Cc3ccccc3CN2C(=O)CCC(=O)N2CCNCC2)ccc1Cl [Compound 12-115] ?
< 6.30

What pEC50 value was documented for this compound, CO[C@@H]1CCCN(C(=O)CCC(=O)N2Cc3ccccc3C[C@H]2C(=O)N[C@@H](CCN)C(=O)Nc2ccc(Cl)c(Cl)c2F)C1 [Compound 15-27] ?
> 7.30

What pEC50 value was documented for this compound, NCC[C@H](NC(=O)[C@@H]1Cc2ccccc2CN1C(=O)CCC(=O)c1ccccc1)C(=O)Nc1ccc(C(F)(F)F)c(F)c1 [Compound 2-11] ?
6.30 to 6.60

What pEC50 value was documented for this compound, Cc1c(Cl)cc(NC(=O)[C@H](CCN)NC(=O)[C@@H]2Cc3ccccc3CN2C(=O)CCC(=O)c2ccccc2)cc1Cl [Compound 27-3] ?
> 7.30

What pEC50 value was documented for this compound, CC1(C)CCCCN1C(=O)CCC(=O)N1Cc2ccccc2C[C@H]1C(=O)N[C@H](CCN1CCC(O)CC1)C(=O)Nc1ccc(Cl)c(Cl)c1F [Compound 26-2] ?
> 7.30

What pEC50 value was documented for this compound, Cc1cc(C#N)c(NC(=O)[C@H](CCN)NC(=O)[C@@H]2Cc3ccccc3CN2C(=O)CCC(=O)c2ccccc2)cc1Cl [Compound 35-2] ?
> 7.30

What pEC50 value was documented for this compound, Cc1cc(NC(=O)[C@H](CCN)NC(=O)[C@@H]2Cc3ccccc3CN2C(=O)CCC(=O)c2ccccc2)cc(Cl)c1Cl [Compound 4-18] ?
6.60 to 7.30

What pEC50 value was documented for this compound, Cc1c(Cl)ccc(NC(=O)[C@H](CCN)NC(=O)[C@@H]2Cc3ccccc3CN2C(=O)CCC(=O)N2CCCC23CCC3)c1Cl [Compound 15-48] ?
> 7.30
